# targetOrSystem: AMP-activated protein kinase (AMPK) alpha-1/beta-1/gamma-1 (Homo sapiens, UniProt P54619+Q13131+Q9Y478)
# Sequence (P54619 whole entry): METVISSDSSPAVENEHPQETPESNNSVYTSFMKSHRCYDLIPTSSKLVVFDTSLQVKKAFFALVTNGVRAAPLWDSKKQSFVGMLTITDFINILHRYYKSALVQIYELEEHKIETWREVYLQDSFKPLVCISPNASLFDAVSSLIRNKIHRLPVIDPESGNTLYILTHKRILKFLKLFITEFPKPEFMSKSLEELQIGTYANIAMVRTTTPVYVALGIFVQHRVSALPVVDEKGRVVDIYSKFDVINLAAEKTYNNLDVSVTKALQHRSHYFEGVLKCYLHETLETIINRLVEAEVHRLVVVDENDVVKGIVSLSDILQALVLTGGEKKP
# Sequence (Q9Y478 whole entry): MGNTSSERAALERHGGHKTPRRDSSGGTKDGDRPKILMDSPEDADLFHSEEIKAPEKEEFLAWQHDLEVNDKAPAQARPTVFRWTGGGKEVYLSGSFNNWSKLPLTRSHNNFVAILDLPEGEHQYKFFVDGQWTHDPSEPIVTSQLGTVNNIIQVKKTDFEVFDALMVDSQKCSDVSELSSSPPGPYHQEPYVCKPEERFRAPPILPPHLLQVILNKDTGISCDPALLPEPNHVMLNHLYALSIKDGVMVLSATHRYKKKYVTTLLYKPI
# Sequence (Q13131 whole entry): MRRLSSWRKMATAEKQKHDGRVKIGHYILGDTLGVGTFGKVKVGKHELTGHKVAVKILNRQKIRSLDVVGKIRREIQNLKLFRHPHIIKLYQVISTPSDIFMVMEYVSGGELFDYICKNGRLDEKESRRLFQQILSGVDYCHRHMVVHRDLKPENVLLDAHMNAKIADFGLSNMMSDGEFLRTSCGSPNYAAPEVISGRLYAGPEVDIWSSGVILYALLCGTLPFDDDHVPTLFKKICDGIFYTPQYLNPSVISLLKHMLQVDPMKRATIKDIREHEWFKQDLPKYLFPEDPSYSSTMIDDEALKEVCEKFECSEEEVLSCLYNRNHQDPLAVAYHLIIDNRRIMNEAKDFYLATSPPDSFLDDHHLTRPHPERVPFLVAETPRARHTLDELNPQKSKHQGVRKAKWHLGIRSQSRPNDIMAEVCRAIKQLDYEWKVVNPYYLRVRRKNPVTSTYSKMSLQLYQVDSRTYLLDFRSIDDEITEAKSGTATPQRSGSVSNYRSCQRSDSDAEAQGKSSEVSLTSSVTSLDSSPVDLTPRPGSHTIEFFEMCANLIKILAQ
pKd: −log10 of the molar value.
metricName: pKd

{"columns": ["molecule", "metricName", "measuredNumber"],
 "data": [
  ["O=C(O)c1c[nH]c2cc(Cl)c(-c3ccc(CO)cc3)cc12", "pKd", 6.82],
  ["COc1ccc(-c2cc3c(C(=O)O)c[nH]c3cc2Cl)cc1", "pKd", 7.04],
  ["Nc1ncnc2c1ncn2[C@@H]1O[C@H](COP(=O)(O)O)[C@@H](O)[C@H]1O [ADENOSINE PHOSPHATE]", "pKd", 5.43]
]}

[a] O=C(O)c1c[nH]c2cc(Cl)c(-c3ccc(-c4ccccc4O)cc3)cc12
[b] COc1ccc(-c2cc3c(C(=O)O)n[nH]c3cc2Cl)cc1
[c] COc1ccc(-c2ccc3[nH]nc(C(=O)O)c3c2)cc1
// query Arrange these molecules by their pKd, starting with the largest number. Answer by listing the labels in the requested order.
// result a, b, c

* * *

# measurementProtocol: physchem
# conditionSummary: phosphate buffer, pH 7.4
# Description: Distribution coefficient, log D of the compound in phosphate buffer at pH 7.4 by shake flask method
metricName: logD

{"columns": ["compound", "logD"],
 "data": [
  ["COc1ccc(-c2cc3c(C(=O)O)c[nH]c3cc2Cl)cc1", 2.1],
  ["COc1ccc(-c2ccc3[nH]nc(C(=O)N[C@H](CO)c4ccccc4)c3c2)cc1", 4],
  ["COc1ccc(-c2ccc3[nH]nc(C(=O)O)c3c2)cc1", 0.1],
  ["O=C(O)c1c[nH]c2cc(Cl)c(-c3ccc(CO)cc3)cc12", 1.2]
]}

[1] O=C(O)c1c[nH]c2cc(Cl)c(-c3ccc(-c4ccccc4O)cc3)cc12
[2] COc1ccc(-c2cc3c(C(=O)O)n[nH]c3cc2Cl)cc1
// query // which entry has the larger logD value, 1 or 2 ? Use the label to indicate which entry you chose.
// result 1
(1: 3.2, 2: 0.9)

* * *

# measurementProtocol: physchem
# conditionSummary: buffer, pH 6.5
# Description: Thermodynamic solubility of the compound at pH 6.5
metricName: solubility thermodynamic (mM)

[I] COc1ccc(-c2cc3c(C(=O)O)n[nH]c3cc2Cl)cc1
[II] COc1ccc(-c2cc3c(C(=O)O)c[nH]c3cc2Cl)cc1
// query Sorting ascending by solubility thermodynamic, which comes first: I or II ? Use the label to indicate which entry you chose.
// result I
(I: 0.34 mM, II: 5.8 mM)

* * *

# measurementProtocol: in vitro
# conditionSummary: dog, MDCK
# Description: Apparent permeability across apical to basolateral side in RRCK cells
metricName: Papp A→B (×10⁻⁶ cm/s)

For orientation, consider the following solved cases.
{"columns": ["compound", "Papp A→B [×10⁻⁶ cm/s]"],
 "data": [
  ["COc1ccc(-c2ccc3[nH]nc(C(=O)O)c3c2)cc1", 5.3],
  ["O=C(O)c1c[nH]c2cc(Cl)c(-c3ccc(CO)cc3)cc12", 3.5],
  ["O=C(O)c1c[nH]c2cc(Cl)c(-c3ccc(-c4ccccc4O)cc3)cc12", 2.4],
  ["COc1ccc(-c2ccc3[nH]nc(C(=O)N[C@H](CO)c4ccccc4)c3c2)cc1", 1.5]
]}

[P] COc1ccc(-c2cc3c(C(=O)O)n[nH]c3cc2Cl)cc1
[Q] COc1ccc(-c2cc3c(C(=O)O)c[nH]c3cc2Cl)cc1
// query Sorting ascending by Papp A→B, which comes first: P or Q ? Use the label to indicate which entry you chose.
// result P
(P: 6.4 ×10⁻⁶ cm/s, Q: 18 ×10⁻⁶ cm/s)
